- assay_remarks: qHTS assay for small molecule activators of the heat shock response signaling pathway - cell viability counter screen (AID 743209); further: nearly all actives have a fitted effect of over 50% in size
- experimental_setup: HSE-bla HeLa viability, CellTiter-Glo luminescence, 5 h; series mostly up to 62.6 µM
Results filed as inconclusive are left out. Activity calls are given as the source filed them. The call rests on the fitted dose curve; in most records, active means well fitted cell-killing curve with a large enough effect in the repeat runs; inconclusive means weak or mixed curves, or effect the other way; inactive means no such curve, though single readings can be large or run the other way.
Would you mind answering with one of these outcomes? True = active, False = inactive

Completed entries (count: 2):
CCCC[N+]1(C)[C@@H]2CC(OC(=O)[C@H](CO)c3ccccc3)C[C@H]1[C@@H]1O[C@@H]12 (stereo partly specified) ... False
NC(=S)c1c(Cl)cccc1Cl ... False

Recorded call for O=P(OCC(Br)CBr)(OCC(Br)CBr)OCC(Br)CBr (stereo unspecified) ?
False
